- test target: peroxidase-anti-peroxidase (PAP) immune complex (preformed immune complex of peroxidase and anti-peroxidase IgG)
- assay: reverse ELISA, competition: pre-incubated with PAP, then C1q-coated plate (competitor: C1q); OD = PAP bound, lower = more inhibition
Positions of bridges follow the written chain, without caps; N, C: chain ends. No end group written: not given here.
assay metric: OD 405 nm (OD)

Example entries and their recorded answers appear below.
- binder: "PCARHLGELVWCT (disulfide 2-12 (inferred)) [… peptide (SEQ ID NO:41)]"
  OD 405 nm, OD: 0.205
- binder: "DCARHLGELVWCT (disulfide 2-12 (inferred)) [… peptide (SEQ ID NO:4)]"
  OD 405 nm, OD: 0.193

[P] RCARHLGELVWCT (disulfide 2-12 (inferred)) [… peptide (SEQ ID NO:5)]
[Q] DCAAHLGELAACT (cyclized by a disulfide bond between the two cysteine residues) [… peptide (SEQ ID NO:40)]
Given the listed items, does P or Q have the lesser reported OD 405 nm? Bench note: the answer is the label of the chosen record.
P
